Biological target: T1, human IGF-1 receptor (human, UniProt P08069 31-1367)
T1 construct: whole, on cells; transfected HEK293 cells in the phosphorylation assay
Experiment: competition SPA, [125I]IGF-1
Bridge positions count the residues as written; N and C are the ends. Ends that are not written are not given here. I, II: the chains in the order shown.
property: % native IGF-1 activity (0.55 nM) (%)
Answers are plain numbers, in %.

Check out these entries, answers already filled in.
>  <binder>
IGF-1 A (H8 A9 N21):B(H5D10Y16L17 A22) DPI A-COOH (ligand, not fully specified (C-terminus); ends and bridges not checked) chain 1: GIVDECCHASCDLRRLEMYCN-OH chain 2: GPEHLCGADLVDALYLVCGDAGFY

>  <valueUnit>
%

>  <% native IGF-1 activity (0.55 nM)>
2.4

$$$$
>  <binder>
IGF-1 A:B(D10Y16L17) DPI A-COOH (ligand, ends and bridges not checked) chain 1: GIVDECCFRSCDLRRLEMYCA-OH chain 2: GPETLCGADLVDALYLVCGDRGFY-NH2

>  <valueUnit>
%

>  <% native IGF-1 activity (0.55 nM)>
8.1

$$$$
>  <binder>
IGF-1 A:B (H5D10Y16L17) DPI (ligand, cysteine pairing not given here) chain 1: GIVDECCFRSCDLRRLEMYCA-NH2 chain 2: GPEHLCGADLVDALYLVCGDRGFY-NH2

>  <valueUnit>
%

>  <% native IGF-1 activity (0.55 nM)>
11.8

$$$$

Then this binder:
## Input Give the value of % native IGF-1 activity (0.55 nM) reported for the following: IGF-1 A:IGF-1 B(1-8)-In (9-17)-IGF-1 B(18-30) (ligand, disulfide I:6-I:11, I:20-II:18, I:7-II:6 (inferred); not fully specified, chimeric B chain) chain 1: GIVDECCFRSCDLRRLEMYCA-NH2 chain 2: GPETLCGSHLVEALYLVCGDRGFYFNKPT-NH2
## Output 0.4
